Origin of the recorded values: the supplement of paper PMC7877785

test details: self-splicing fitness, log relative to wild type (ln ratio); higher = more splicing; Tetrahymena group I intron in knt gene, E. coli kanamycin selection, DiMSum; sequences stand for … in CUCUCU…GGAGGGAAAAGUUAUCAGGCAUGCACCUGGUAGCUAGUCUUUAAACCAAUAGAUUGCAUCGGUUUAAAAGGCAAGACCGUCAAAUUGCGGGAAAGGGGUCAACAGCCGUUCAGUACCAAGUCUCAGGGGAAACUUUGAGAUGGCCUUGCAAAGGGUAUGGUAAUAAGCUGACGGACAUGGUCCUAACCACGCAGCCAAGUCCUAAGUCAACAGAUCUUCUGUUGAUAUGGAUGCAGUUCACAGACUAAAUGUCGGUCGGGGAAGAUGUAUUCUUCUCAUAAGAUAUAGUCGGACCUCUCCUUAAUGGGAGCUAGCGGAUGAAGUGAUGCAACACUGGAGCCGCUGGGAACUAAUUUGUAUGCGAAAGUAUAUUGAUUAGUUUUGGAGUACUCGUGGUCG;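 also: selection with 25 µg/mL kanamycin versus none on LB agar overnight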
run conditions: 30 °C
Rule: self-splicing fitness (ln) under -2 gives 0 (no), otherwise 1 (yes).

Solved cases (5 shown):
* GGUUAGCAAUAUUACGGCCA | 1 (yes)
* GGAGAGCAAUAUUACGAUCA | 1 (yes)
* UAUCAGCAAUAUUACGAUAG | 1 (yes)
* GACCAGCAAUAUUACGGCUC | 1 (yes)
* CCUUAGCAAUAUUACGUUGA | 0 (no)

# input Could you please find out whether `CGAUAGCAAUAUUACGGCAC` has self-splicing fitness (ln) that meets -2 or exceeds it?
# output 0 (no)

# input Dear colleague, could you confirm whether `AGCCAGCAAUAUUACGUGAG` has self-splicing fitness (ln) at or above -2?
# output 0 (no)

# input Quick check: does `GCUAAGCAAUAUUACGAAAU` have self-splicing fitness (ln) greater than or equal to -2?
# output 1 (yes)

# input Does the reported self-splicing fitness (ln) for `CUAGAGCAAUAUUACGAAUA` fall at or above the -2 mark?
# output 0 (no)

# input Does `AUCGAGCAAUAUUACGGGAG` have a reported self-splicing fitness (ln) of at least -2?
# output 0 (no)

# input Check the entry `GUGCAGCAAUAUUACGACAC` : does self-splicing fitness (ln) equal or exceed -2?
# output 1 (yes)

# input Decide: is the reported value of self-splicing fitness (ln) for `GAGAAGCAAUAUUACGAGCG` equal to or greater than -2?
# output 1 (yes)

# input Is the recorded value of self-splicing fitness (ln) equal to or greater than -2 for this sequence? `UUCAAGCAAUAUUACGCGGA`
# output 0 (no)

# input Is self-splicing fitness (ln) for `AAGCAGCAAUAUUACGUGCG` at or above -2?
# output 1 (yes)

# input Decide: self-splicing fitness (ln) of `GAUUAGCAAUAUUACGAAAG` >= -2?
# output 0 (no)

# input Determine whether measured self-splicing fitness (ln) meets or exceeds -2 for `GAUCAGCAAUAUUACGGCAG`
# output 0 (no)

# input Test whether the sequence `GAGCAGCAAUAUUACGGUUA` records self-splicing fitness (ln) of -2 or higher.
# output 1 (yes)
